tested on: MS2 coat protein; experiment: apparent KD of MS2 coat protein; higher = weaker reporter binding; details: Eterna round: R107; input ligand: tryptophan 2.4 mM
Provide the recorded apparent KD of MS2 coat protein for the entries that follow.
Dear colleague, please return just the value in nM, with no unit written.

Which apparent KD of MS2 coat protein value belongs to CGACGAUACCUGGAUACCAGCGACAUGAGGAUCACCCAUGUAUGUGGAUCAGCCAUGAUAUGCCCUUGGCAGCCACCAAAGUCGG [IIIMULLIN] ? 14.3

Which apparent KD of MS2 coat protein value belongs to GGAAGGACAGUUGAUACCAGUUUCAAAGGCGGUAAUCACUACAUGAGGAUCACCCAUGUCAACCCUUGGCAGCAAUAGACCGUGG [theeternabot_exclusion_MS2_Theo_B_6] ? 19.2

Which apparent KD of MS2 coat protein value belongs to UGACGAUACCUGGAUACCAGCGACAUGAGGAUCACCCAUGUAUGAGGAUCAGCCAUGUUAUGCCCUUGGCAGCCACGAAGGUCUU [CSCMULLIN] ? 33.1

Which apparent KD of MS2 coat protein value belongs to ACAUGAGGAUCACCCAUGUAGCCUAGGGAAGGAGCGGCGUAAGAGCCAGGUAGGUCGCCCGCAUGAGGAUCACCCAUGUCGAGGG [Same State Arginine A GF10] ? 29.3

Data origin, for the record: the supplement of paper PMC9170038
